# study target: M. avium (Ma) dihydrofolate reductase (Mycobacterium avium, UniProt O30463)
# Sequence (O30463 1-181): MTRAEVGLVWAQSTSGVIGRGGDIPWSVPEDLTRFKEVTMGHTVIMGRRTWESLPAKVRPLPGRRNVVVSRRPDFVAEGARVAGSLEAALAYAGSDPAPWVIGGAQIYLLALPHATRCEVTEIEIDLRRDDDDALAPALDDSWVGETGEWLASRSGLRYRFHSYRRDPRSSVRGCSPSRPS
# assay overview: biochemical
measured property: log10(IC50) (log10 of the value in µM)
Values are log10 of IC50 in µM.

COc1ccc(C#CCOc2cccc(C(=O)O)c2)cc1Cc1cnc(N)nc1N
-1.24

Which log10(IC50) value is on record for COc1ccc(CCCCCCC(=O)O)cc1Cc1cnc(N)nc1N ?
-1.05

Please report the recorded log10(IC50) for COc1ccc(C#CCOc2ccccc2C(=O)O)cc1Cc1cnc(N)nc1N .
-1.44

So what's the measured log10(IC50) for this one? COc1ccc(OCc2cccc(C(=O)O)c2)cc1Cc1cnc(N)nc1N
-0.92

Using the record for COc1ccc(C#CCCCCC(=O)O)cc1Cc1cnc(N)nc1N , report its log10(IC50).
-1.39

Fill in: log10(IC50) of COc1cc(Cc2cnc(N)nc2N)cc(C#CCCCC(=O)O)c1OC is ___
-2.62

###

# study target: rat liver DHFR (Rattus norvegicus)
# Construct: rat liver DHFR; from tissue; host or cells: rat liver
# Sequence (Q920D2 whole entry): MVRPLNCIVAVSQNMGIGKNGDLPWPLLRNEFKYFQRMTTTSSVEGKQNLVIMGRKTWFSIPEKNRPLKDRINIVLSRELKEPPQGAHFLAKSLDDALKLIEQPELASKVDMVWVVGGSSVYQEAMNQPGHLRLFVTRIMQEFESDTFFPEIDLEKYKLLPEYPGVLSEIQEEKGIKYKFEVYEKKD
# assay overview: Standardized spectrophotometric DHFR inhibition assay, rat liver enzyme
# Format: biochemical
Entry class follows IC50: interval 1 (below 5 µM), interval 2 (5 µM to below 20 µM), interval 3 (20 µM or more)

Answered examples (5):
COc1ccc(CCCCCCC(=O)O)cc1Cc1cnc(N)nc1N [Compound 7]
interval 1
COc1ccc(OCc2ccc(C(=O)O)cc2)cc1Cc1cnc(N)nc1N [Compound 9]
interval 3
COc1ccc(C#CCCCC(=O)O)cc1Cc1cnc(N)nc1N [Compound 3]
interval 1
COc1ccc(OCc2cccc(C(=O)O)c2)cc1Cc1cnc(N)nc1N [Compound 8]
interval 2
COc1ccc(CCCCCC(=O)O)cc1Cc1cnc(N)nc1N [Compound 6]
interval 1

Which IC50 band matches COc1ccc(CCCCC(=O)O)cc1Cc1cnc(N)nc1N [Compound 5] ?
interval 1

Record COc1cc(Cc2cnc(N)nc2N)cc(C#CCCCC(=O)O)c1OC [Compound 49] — which class?
interval 3

Input COc1ccc(C#CCCCCC(=O)O)cc1Cc1cnc(N)nc1N [Compound 4] ; output its category
interval 3

# bin label for COc1ccc(C#CCOc2cccc(C(=O)O)c2)cc1Cc1cnc(N)nc1N [Compound 11]
interval 2

// bin(item) where item = COc1ccc(C#CCOc2ccccc2C(=O)O)cc1Cc1cnc(N)nc1N [Compound 10]
interval 2

###

# study target: P. carinii (Pc) dihydrofolate reductase (Pneumocystis carinii)
# Sequence (P16184 whole entry): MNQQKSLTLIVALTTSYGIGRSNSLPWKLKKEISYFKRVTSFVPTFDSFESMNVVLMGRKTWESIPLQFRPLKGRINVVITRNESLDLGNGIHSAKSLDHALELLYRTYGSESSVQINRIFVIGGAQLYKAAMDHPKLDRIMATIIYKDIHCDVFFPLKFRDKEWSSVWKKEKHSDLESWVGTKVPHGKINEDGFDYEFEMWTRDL
# assay overview: Standardized spectrophotometric DHFR inhibition assay, P. carinii enzyme
# Format: biochemical
# details: Pc DHFR
measured property: IC50 (µM)
Give the value, in units of µM, as a plain number.

COc1ccc(C#CCOc2ccccc2C(=O)O)cc1Cc1cnc(N)nc1N
2.3
COc1ccc(CCCCCCC(=O)O)cc1Cc1cnc(N)nc1N
0.53
COc1cc(Cc2cnc(N)nc2N)cc(C#CCCCC(=O)O)c1OC
0.001

Continue with the next compound.
GET /values?readout=IC50&item= COc1ccc(C#CCOc2cccc(C(=O)O)c2)cc1Cc1cnc(N)nc1N
5.6

###

# study target: UniProt:O30463
# assay overview: biochemical
# details: Ma DHFR
Doc: threshold 0.02 µM (exclusive). Items with IC50 beneath it return met; others return not met.

Examples with answers:
COc1ccc(CCCCCC(=O)O)cc1Cc1cnc(N)nc1N [Compound 6]
met
COc1ccc(OCCCCC(=O)O)cc1Cc1cnc(N)nc1N [Compound 1b, reference compound]
not met
COc1ccc(OCc2ccc(C(=O)O)cc2)cc1Cc1cnc(N)nc1N [Compound 9]
not met

State whether 0.02 µM exceeds IC50 recorded for COc1ccc(C#CCCCC(=O)O)cc1Cc1cnc(N)nc1N [Compound 3] .
met

Determine if COc1ccc(CCCCC(=O)O)cc1Cc1cnc(N)nc1N [Compound 5] shows IC50 strictly lower than 0.02 µM.
not met

###

Measured IC50, listed per entry for reference.
# study target: P. carinii (Pc) dihydrofolate reductase (Pneumocystis carinii)
# assay overview: Standardized spectrophotometric DHFR inhibition assay, P. carinii enzyme
# Type: biochemical
# details: Pc DHFR
Respond numerically; units are µM and should not be typed.

Some compounds with recorded IC50:
COc1ccc(OCc2cccc(C(=O)O)c2)cc1Cc1cnc(N)nc1N
0.89
COc1ccc(C#CCCCCC(=O)O)cc1Cc1cnc(N)nc1N
0.87

Fill blank: measured IC50 of the compound COc1ccc(CCCCC(=O)O)cc1Cc1cnc(N)nc1N is ____.
0.15

Fill blank: measured IC50 of the compound COc1ccc(CCCCCC(=O)O)cc1Cc1cnc(N)nc1N is ____.
0.15

Param item = COc1ccc(C#CCCCC(=O)O)cc1Cc1cnc(N)nc1N ; retrieve measured IC50.
0.028

###

# study target: T. gondii (Tg) dihydrofolate reductase (Toxoplasma gondii, UniProt Q07422)
# Sequence (Q07422 whole entry): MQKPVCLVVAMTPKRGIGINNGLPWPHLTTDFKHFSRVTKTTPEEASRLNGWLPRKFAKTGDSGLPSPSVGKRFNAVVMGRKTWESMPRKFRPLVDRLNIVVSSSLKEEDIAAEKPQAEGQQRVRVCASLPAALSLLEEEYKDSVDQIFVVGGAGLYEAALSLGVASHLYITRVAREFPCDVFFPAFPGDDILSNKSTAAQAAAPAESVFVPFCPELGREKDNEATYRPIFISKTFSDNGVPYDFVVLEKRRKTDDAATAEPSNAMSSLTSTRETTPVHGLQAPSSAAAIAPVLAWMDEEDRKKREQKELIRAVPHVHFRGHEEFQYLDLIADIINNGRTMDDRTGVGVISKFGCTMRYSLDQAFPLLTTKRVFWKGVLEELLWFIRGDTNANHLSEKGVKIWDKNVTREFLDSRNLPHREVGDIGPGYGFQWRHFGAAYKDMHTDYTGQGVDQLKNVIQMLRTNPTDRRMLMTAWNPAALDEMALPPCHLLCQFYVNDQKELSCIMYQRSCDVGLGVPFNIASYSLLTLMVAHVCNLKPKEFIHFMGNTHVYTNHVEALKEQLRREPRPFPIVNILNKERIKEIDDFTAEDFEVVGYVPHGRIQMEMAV
# Format: biochemical
Reported IC50 values are given for each entry in this list.
Quick note: give the figure in µM, leave out the unit.

Consider the following illustrative entries.
COc1ccc(OCCCCC(=O)O)cc1Cc1cnc(N)nc1N [Compound 1b, reference compound]
0.11
COc1ccc(C#CCOc2cccc(C(=O)O)c2)cc1Cc1cnc(N)nc1N [Compound 11]
1.6
COc1ccc(C#CCCCCC(=O)O)cc1Cc1cnc(N)nc1N [Compound 4]
0.072
COc1ccc(C#CCCCC(=O)O)cc1Cc1cnc(N)nc1N [Compound 3]
0.032
COc1ccc(CCCCCCC(=O)O)cc1Cc1cnc(N)nc1N [Compound 7]
0.03

// switching to the query compound
Which IC50 reading was recorded for the compound COc1ccc(OCc2cccc(C(=O)O)c2)cc1Cc1cnc(N)nc1N [Compound 8] ?
0.6

###

# study target: T. gondii (Tg) dihydrofolate reductase (Toxoplasma gondii, UniProt Q07422)
# Format: biochemical
# details: Tg DHFR
Entries whose IC50 is below 0.1 µM take met; entries at or above 0.1 µM take not met.

Reference set (4 entries):
COc1ccc(OCc2ccc(C(=O)O)cc2)cc1Cc1cnc(N)nc1N
not met
COc1ccc(C#CCCC(=O)O)cc1Cc1cnc(N)nc1N
met
COc1ccc(CCCCC(=O)O)cc1Cc1cnc(N)nc1N
met
COc1ccc(C#CCOc2ccccc2C(=O)O)cc1Cc1cnc(N)nc1N
not met

Query compound follows.
Lab log: compare recorded IC50 with 0.1 µM; is it strictly lower for COc1ccc(CCCCCC(=O)O)cc1Cc1cnc(N)nc1N ?
met

Origin of values: patent US20060142315A1
